From: patent US20260356856A1

Record form. Attribute: IC50. Fill in for each entry.
# assayed.target: KRas G12C (Homo sapiens, UniProt P01116, G12C)
# Construct: Biotinylated KRas (corresponding to amino acids 1-169, produced at Accelegan Inc.); biotin (biotinylated); purchased Accelegan Inc
# Sequence (P01116 1-169 isoform P01116-2 G12C): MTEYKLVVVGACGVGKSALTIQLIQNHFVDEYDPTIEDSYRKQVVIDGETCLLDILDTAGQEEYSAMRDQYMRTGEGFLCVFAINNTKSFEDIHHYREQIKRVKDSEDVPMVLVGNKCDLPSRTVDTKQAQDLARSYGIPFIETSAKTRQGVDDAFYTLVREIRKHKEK
# test.method.notes: KRas binding assay, TR-FRET displacement of Cy5 labelled tracer
# experimental.conditions: 60-minute incubation at room temperature, 1% DMSO, pH 7.5
# Protocol: This Example illustrates that exemplary compounds of the present invention bind to KRas and are capable of displacing a labeled tracer ligand occupying the KRas binding site. […] The ability of a compound to bind to KRas was measured using a TR-FRET displacement assay. […] After a 60-minute incubation at room temperature, the reaction was measured using a BMG LABTECH CLARIO star Plus via TR-FRET. […]
The reply should be a number in nM, with the unit left off.

# CCc1c(F)ccc2cc(O)cc(-c3ncc4c(N5CCC(C(=O)n6ccc(C)n6)CC5)nc(OC[C@@]56CCCN5C[C@H](F)C6)nc4c3F)c12 with KRas G12C (Homo sapiens, UniProt P01116, G12C): IC50 is 77

KRas G12C (Homo sapiens, UniProt P01116, G12C) data for O=C(Oc1ccccc1F)[C@@H]1[C@@H]2CC[C@H]1CN(c1nc(OCC34CCCN3CCC4)nc3c(F)c(-c4cccc5cccc(F)c45)ncc13)C2 ; its IC50: 66900

Value sought: IC50, system KRas G12C (Homo sapiens, UniProt P01116, G12C), item Cc1ccn(C(=O)[C@H]2CCN(c3nc(OC[C@@]45CCCN4C[C@H](F)C5)nc4c(F)c(-c5ccc(F)c6sc(N)c(C#N)c56)c(Cl)cc34)C[C@H]2C)n1 . Result: 18

Measured on KRas G12C (Homo sapiens, UniProt P01116, G12C), O=C(Oc1ccc(F)c(F)c1)[C@@H]1[C@@H]2CC[C@H]1CN(c1nc(OCC34CCCN3CCC4)nc3c(F)c(-c4cccc5cccc(F)c45)ncc13)C2 has a documented IC50 of 34800

Short answer on KRas G12C (Homo sapiens, UniProt P01116, G12C) for CCc1c(F)ccc2cc(O)cc(N3CCc4c(nc(OC[C@@]56CCCN5C[C@H](F)C6)nc4N4CCCC(C(=O)n5ccc(C)n5)CC4)C3)c12 (stereo partly drawn) , IC50: 237

For CCc1c(F)ccc2cc(O)cc(N3CCc4c(nc(OC[C@@]56CCCN5C[C@H](F)C6)nc4N4CCCCC(C(=O)n5ccc(C)n5)CC4)C3)c12 (stereo partly drawn) on KRas G12C (Homo sapiens, UniProt P01116, G12C), measured IC50 was 19

====

# assayed.target: KRas-mediated phosphorylation of ERK in A549 cells (Homo sapiens, UniProt P01116, G12S)
# Construct: pERK HTRF read-out
# Sequence (P01116 1-188 isoform P01116-2 G12S): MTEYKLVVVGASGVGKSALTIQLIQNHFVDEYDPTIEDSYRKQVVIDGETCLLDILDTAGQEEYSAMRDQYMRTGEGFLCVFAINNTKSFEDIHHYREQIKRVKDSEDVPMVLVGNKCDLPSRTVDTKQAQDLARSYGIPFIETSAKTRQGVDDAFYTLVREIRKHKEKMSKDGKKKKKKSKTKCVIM
# test.method.notes: Inhibition of KRas-mediated phosphorylation of ERK (HTRF), A549 cells
# Assay type: cell-based
# experimental.conditions: HTRF pERK, 3 h incubation
Response field label: string, one of met (IC50 strictly below 100 nM) or not met.

Is it true that IC50 reported for Cc1ccn(C(=O)C2CCN(c3nc(OC[C@@]45CCCN4C/C(=C\F)C5)nc4c(F)c(-c5ccc(F)c6sc(N)c(C#N)c56)c(Cl)cc34)CC2)n1 is less than 100 nM?
met

# TODO verify IC50 < 100 nM strictly for this compound: CN(CCN(C)c1nc(OC[C@@]23CCCN2C[C@H](F)C3)nc2c(F)c(-c3ccc(F)c4sc(N)c(C#N)c34)c(Cl)cc12)C(=O)n1nccn1 (single isomer, unassigned)
not met

Dear colleague, could you confirm whether IC50 of CCc1c(F)ccc2cc(O)cc(N3CCc4c(nc(OC[C@@]56CCCN5C[C@H](F)C6)nc4N4CCCCC(C(=O)n5ccc(C)n5)C4)C3)c12 (stereo partly drawn) falls below 100 nM? Thanks.
not met

In plain terms, does N#Cc1c(N)sc2c(F)ccc(-c3c(Cl)cc4c(N5CCCC(C(=O)n6cccn6)CC5)nc(OC[C@@]56CCCN5C[C@H](F)C6)nc4c3F)c12 (stereo partly drawn) come in under 100 nM for IC50?
met

# strict comparison: is reported IC50 < 100 nM? input = CCc1c(F)ccc2cc(O)cc(-c3ncc4c(N(C)CCCC(=O)N(C)C(C)=O)nc(OC[C@@]56CCCN5C[C@H](F)C6)nc4c3F)c12
met
